pIC50 for assorted compounds
# test.summary: Inhibition of Aspergillus niger amyloglucosidase using p-nitrophenyl glycoside as substrate by spectrometric method
# output: bare number, no unit

Solved entries (count: 3):
OC[C@@H]1[C@@H](O)[C@H](O)[C@H]2[C@@H](F)[C@H](O)CN21 ... 3.777
OC[C@@H]1[C@@H](O)[C@H](O)[C@H]2C[C@H](O)CN12 ... 4.377
OC[C@@H]1[C@@H](O)[C@H](O)[C@H]2C[C@@H](O)CN12 ... 4.398

// query Name the recorded pIC50 for `OC[C@@H]1[C@@H](O)[C@H](O)[C@H]2[C@H](F)[C@@H](O)CN21` .
// result 5.276

// query Name the recorded pIC50 for `OC[C@@H]1[C@@H](O)[C@H](O)[C@H]2[C@H](F)[C@H](O)CN21` .
// result 5.347

// query Name the recorded pIC50 for `OC[C@@H]1[C@@H](O)[C@H](O)[C@H]2[C@@H](F)CCN21` .
// result 4.092
